Target: HIV-1 93IN905 Env (HIV-1 strain 93IN905)
Assay: cell-based or functional assay
ENDPOINT: IC50 neutralization, 1 hour virus/Ab incubation (µg/mL)
Write the value in µg/mL as a bare number.

{"BINDER": "1443_C16 (PG16) (TCN-116) (antibody, V domains shown) VH: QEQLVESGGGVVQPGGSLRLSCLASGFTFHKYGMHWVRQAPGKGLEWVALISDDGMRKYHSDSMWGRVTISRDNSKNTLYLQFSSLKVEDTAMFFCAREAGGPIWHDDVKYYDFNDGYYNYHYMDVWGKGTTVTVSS VL: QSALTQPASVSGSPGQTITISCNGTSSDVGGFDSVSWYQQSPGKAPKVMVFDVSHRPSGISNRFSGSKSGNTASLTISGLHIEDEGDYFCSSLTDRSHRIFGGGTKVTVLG", "MEASUREMENT": 0.33}

Kindly consider the entry below.
Name the recorded IC50 neutralization, 1 hour virus/Ab incubation for 1496_C09 (PG9) (TCN-109) (antibody, V domains shown) VH: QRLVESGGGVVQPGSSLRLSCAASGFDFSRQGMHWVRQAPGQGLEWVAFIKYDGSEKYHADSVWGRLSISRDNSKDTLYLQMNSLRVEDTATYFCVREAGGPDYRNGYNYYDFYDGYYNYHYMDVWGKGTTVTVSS VL: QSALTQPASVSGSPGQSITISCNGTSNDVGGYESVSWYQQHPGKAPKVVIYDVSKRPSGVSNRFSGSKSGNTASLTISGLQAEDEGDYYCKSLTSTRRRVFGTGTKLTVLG .
0.144

The reported numbers originate from patent US20160264649A1.
